Reference for the values: ChEMBL document CHEMBL1151897

Tested on: Bacillus subtilis
Assay: Antibacterial activity against Bacillus subtilis
Type: functional, organism-based
Calls of active or inactive are those of the source. The calls are words filed in the database; no cut-off is given here.
measured-parameter: Activity

• CCC1=CN2C(=O)c3ccc(OC)c(O)c3NC(=O)[C@@H]2C1 = inactive
• C/C=C1\C[C@H]2C=Nc3c(ccc(OC)c3O)C(=O)N2C1 [LIMAZEPINE E] = inactive
• COC(=O)c1ccc(OC)c(O)c1N = inactive
• CC1(C)S[C@@H]2[C@H](NC(=O)[C@H](N)c3ccccc3)C(=O)N2[C@H]1C(=O)O [AMPICILLIN] = inactive
• C/C=C1\C[C@H]2C=Nc3ccccc3C(=O)N2C1 = inactive
